# credit: the supplement of paper PMC10065799

Molecular target: MERTK (UniProt Q12866)
Sequence (Q12866 whole entry, looked up): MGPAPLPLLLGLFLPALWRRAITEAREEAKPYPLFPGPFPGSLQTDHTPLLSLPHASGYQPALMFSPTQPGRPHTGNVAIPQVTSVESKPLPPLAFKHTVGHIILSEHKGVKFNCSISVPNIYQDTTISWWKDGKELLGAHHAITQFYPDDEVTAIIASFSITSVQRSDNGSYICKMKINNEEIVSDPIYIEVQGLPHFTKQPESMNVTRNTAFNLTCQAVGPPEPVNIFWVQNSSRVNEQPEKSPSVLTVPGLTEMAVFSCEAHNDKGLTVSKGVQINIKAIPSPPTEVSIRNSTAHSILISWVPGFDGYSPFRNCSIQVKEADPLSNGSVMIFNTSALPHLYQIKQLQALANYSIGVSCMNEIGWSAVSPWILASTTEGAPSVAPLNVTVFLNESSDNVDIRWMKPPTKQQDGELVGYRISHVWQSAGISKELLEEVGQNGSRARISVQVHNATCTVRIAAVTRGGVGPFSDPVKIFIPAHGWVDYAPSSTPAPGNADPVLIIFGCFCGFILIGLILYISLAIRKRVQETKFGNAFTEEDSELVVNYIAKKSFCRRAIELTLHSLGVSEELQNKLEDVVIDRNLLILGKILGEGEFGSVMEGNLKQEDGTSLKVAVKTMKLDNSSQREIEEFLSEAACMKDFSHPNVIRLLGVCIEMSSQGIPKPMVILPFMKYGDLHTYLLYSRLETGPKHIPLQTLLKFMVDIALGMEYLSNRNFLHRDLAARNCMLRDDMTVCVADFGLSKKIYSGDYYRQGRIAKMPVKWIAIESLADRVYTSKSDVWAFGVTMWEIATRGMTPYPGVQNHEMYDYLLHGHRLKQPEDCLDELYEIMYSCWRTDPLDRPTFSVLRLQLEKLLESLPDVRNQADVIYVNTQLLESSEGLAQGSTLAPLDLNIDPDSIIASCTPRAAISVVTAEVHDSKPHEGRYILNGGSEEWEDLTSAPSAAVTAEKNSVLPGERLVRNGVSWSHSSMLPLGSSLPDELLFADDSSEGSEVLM
Experiment: phosphorylation enrichment, bacterial display (enrichment ratio); higher = better substrate or ligand; peptides without Tyr show the background
recorded_endpoint: phosphorylation enrichment
Answer as a number with no unit attached.

Please review the entries below; each comes with its answer.
KANEYYPVVII [ADAMTS18_Y765_L769I] ... 0.81
QRNEEYCLLDS [ITK_Y198_R193Q] ... 0.861
SNNYIYKTLGV [FAM83B_Y639] ... 0.357
KDGSGYISAAE [CALM1_Y100_N98S] ... 0.464
DSILVYQGKEQ [USH2A_Y1909] ... 0.333
AFEQQYSPIPK [NOX1_Y373_R378K] ... 0.874
ATVLNYLPKCI [A2M_Y817] ... 0.392
TRNVRYLTLDI [AKR1C2_Y305_N300T] ... 0.372
APGNAYGDAGF [SYP_Y250_D248N_YF] ... 0.348
IFLADYRIMEG [ALOX12B_Y318_YF] ... 0.478

What the record says about PRRRFYVVACD [RNASE3_Y134_G130R] : phosphorylation enrichment is 0.73

###

Test system: c-Src
Test: phosphorylation enrichment, bacterial display (enrichment ratio); higher = better substrate or ligand; peptides without Tyr show the background
// reported phosphorylation enrichment per item

LFMGDYVDRGF [PPP2CA_Y86_YF] ... 0.61
DVFLKYLNFAT [PDE6B_Y212] ... 0.597
VLTSKYCGGGG [HBA1_Y141_R142C] ... 0.354

Please look at the following sequence next.
Form: sequence = ADKSAYLMGVN [MYH7_Y386_L390V] ; phosphorylation enrichment = 0.41

###

Biological target: Fes (UniProt P07332)
Sequence (P07332 whole entry, looked up): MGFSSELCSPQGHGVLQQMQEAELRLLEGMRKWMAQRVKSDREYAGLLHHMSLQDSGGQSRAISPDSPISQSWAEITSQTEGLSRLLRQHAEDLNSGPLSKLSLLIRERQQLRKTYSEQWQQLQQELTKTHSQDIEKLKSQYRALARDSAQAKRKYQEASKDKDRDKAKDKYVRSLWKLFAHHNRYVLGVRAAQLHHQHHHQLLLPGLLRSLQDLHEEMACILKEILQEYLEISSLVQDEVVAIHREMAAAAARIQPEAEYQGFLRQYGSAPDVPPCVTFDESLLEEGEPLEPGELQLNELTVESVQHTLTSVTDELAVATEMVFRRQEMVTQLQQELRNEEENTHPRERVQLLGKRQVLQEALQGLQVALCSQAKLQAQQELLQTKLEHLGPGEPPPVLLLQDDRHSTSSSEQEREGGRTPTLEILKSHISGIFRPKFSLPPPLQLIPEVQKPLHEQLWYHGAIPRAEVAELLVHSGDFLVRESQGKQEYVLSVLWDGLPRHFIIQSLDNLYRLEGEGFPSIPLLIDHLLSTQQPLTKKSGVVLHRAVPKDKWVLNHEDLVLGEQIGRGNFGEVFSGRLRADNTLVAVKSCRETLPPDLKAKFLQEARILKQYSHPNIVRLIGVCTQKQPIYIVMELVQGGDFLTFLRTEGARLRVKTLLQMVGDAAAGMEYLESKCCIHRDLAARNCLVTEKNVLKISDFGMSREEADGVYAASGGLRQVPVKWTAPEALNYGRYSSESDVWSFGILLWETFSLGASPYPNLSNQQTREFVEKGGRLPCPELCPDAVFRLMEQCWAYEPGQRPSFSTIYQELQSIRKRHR
Experiment: phosphorylation enrichment, bacterial display (enrichment ratio); higher = better substrate or ligand; peptides without Tyr show the background
Please use YES whenever phosphorylation enrichment is not below 1, and NO whenever it is.

Worked examples follow.
GAPATYEGDAR [CACNA1A_Y1013] ... NO
KQVEQYMSFHK [HCN1_Y417] ... NO
ALKWGYTVKGI [OAT_Y158_R154L] ... YES
PRPAGYPSMVS [CACNA1C_Y1832_T1835M] ... NO
GEVLVYAEDPA [FLNA_Y319_V320A] ... YES
ETMNKYDLSGR [MYEF2_Y164] ... NO
RAILDYIASKY [GSTA3_Y74_N73D] ... NO
RMLRKYQELMS [KRT74_Y425_E424K] ... NO

**Query** Does the sequence PPEFSYGLQTQ [SRA1_Y35_Q32E] have recorded phosphorylation enrichment that is 1 or more?
**Result** YES

**Query** Determine whether this sequence has phosphorylation enrichment no lower than 1: GLRSFYETSKM [MAGED2_Y449_YF]
**Result** NO

**Query** Hello, I need to know if TSKLNYLDPRI [TOP1_Y723] has measured phosphorylation enrichment not below 1. Thanks!
**Result** NO

###

System: c-Abl (mouse)
Assay: phosphorylation enrichment, bacterial display (enrichment ratio); higher = better substrate or ligand; peptides without Tyr show the background
Returns Met if the recorded phosphorylation enrichment is greater than or equal to 0.7, and Not met otherwise.

Field: example entries. Status: answers known.
FPILNYKDIRK [CFAP221_Y798_M795I] ... Not met
SFHSSYSEIKD [DCLRE1C_Y322] ... Not met
GEVLVYAEDPA [FLNA_Y319_V320A] ... Not met
PKEQRYSFLQN [GH1_Y68_K67R] ... Met
QEGPEYWDQNT [HLA-A_Y83_E87N] ... Met

**Query** Hello, I need to know if VKYGAYINDFK [GLB1_Y488_N484K] has measured phosphorylation enrichment not below 0.7. Thanks!
**Result** Not met

###

Target: Grb2 SH2 (UniProt P62993)
Sequence (P62993 whole entry, looked up): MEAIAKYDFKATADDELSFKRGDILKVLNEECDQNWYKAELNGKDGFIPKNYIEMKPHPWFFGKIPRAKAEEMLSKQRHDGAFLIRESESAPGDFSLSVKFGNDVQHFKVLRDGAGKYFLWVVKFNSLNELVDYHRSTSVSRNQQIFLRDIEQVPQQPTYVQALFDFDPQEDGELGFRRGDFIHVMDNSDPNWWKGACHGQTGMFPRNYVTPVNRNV
Assay: SH2 binding enrichment of the phosphorylated peptide, bacterial display (enrichment ratio); higher = better substrate or ligand; peptides without Tyr show the background
Classify as follows. Reported SH2 binding enrichment greater than or equal to 0.8: Criterion met. Reported SH2 binding enrichment below: Criterion not met.

These solved cases illustrate the format of a correct answer.
KKMKCYHVGKV [HARS2_Y151_R150C] ... Criterion met
SMAKFYASGIA [ACADSB_Y373_E376G_YF] ... Criterion not met
LNCDRYSVGLL [PDE6A_Y275] ... Criterion met
AFLEDYFTSTK [SRC_Y522_E527K] ... Criterion met
KLVQLYDVCTK [BTK_Y461_G462D] ... Criterion met

**Query** Tell me whether SH2 binding enrichment is at least 0.8 here: SILAVYSKDNY [PANK2_Y400]
**Result** Criterion not met

###

Tested on: AncSZ
Test: phosphorylation enrichment, bacterial display (enrichment ratio); higher = better substrate or ligand; peptides without Tyr show the background
recorded_endpoint: phosphorylation enrichment
Lab note: jot down the number only; don't add units.

Below, 5 sequences whose answers are already recorded.
LNCDRYSVGLL [PDE6A_Y275] ... 1.16
FADIAYNFRQG [PAH_Y166_H170Q_YF] ... 0.772
FAKSVYWENTL [NUP107_Y296_YF] ... 0.899
NPETCYQKLKK [TK2_Y190_R192K] ... 0.906
AFEQQYSPIPK [NOX1_Y373_R378K] ... 0.772

Looking up TKGMIYGGGGG [PSME1_Y249] , I found its phosphorylation enrichment recorded as 0.494

Value of measured phosphorylation enrichment for the entry YPLELYERVRI [PRKCG_Y312_M317I] : 1.08

According to the records, this sequence ASKEPYYVRCI [MYO1D_Y585] displays phosphorylation enrichment of 1.35

Field phosphorylation enrichment (entry LEIETYRRLRD [KRT12_Y429_L433R] ) reads 0.859

# phosphorylation enrichment (sequence: KNDSNYVVKGN [KIT_Y823] ) is 0.539

Record PGLSSYGVPGS [FLNB_Y1530_A1534G] . Reported phosphorylation enrichment: 0.774

###

Target: Hck (UniProt P08631)
Sequence (P08631 whole entry, looked up): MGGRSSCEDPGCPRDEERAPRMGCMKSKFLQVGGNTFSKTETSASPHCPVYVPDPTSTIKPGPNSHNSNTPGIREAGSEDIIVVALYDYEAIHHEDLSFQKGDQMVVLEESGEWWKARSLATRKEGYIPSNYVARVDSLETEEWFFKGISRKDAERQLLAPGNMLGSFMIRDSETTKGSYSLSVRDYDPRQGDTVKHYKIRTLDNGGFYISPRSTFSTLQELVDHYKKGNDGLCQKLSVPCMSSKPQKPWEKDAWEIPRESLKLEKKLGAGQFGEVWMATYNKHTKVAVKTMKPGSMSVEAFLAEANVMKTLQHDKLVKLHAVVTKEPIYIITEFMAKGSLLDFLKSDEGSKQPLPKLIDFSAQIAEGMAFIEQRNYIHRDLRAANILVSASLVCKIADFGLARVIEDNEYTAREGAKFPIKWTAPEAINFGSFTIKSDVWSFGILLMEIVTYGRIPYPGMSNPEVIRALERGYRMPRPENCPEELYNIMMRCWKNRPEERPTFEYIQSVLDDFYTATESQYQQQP
Assay: phosphorylation enrichment, bacterial display (enrichment ratio); higher = better substrate or ligand; peptides without Tyr show the background
Item-by-item account of phosphorylation enrichment
Returns: the value as a bare number; no unit string appended.

Recorded phosphorylation enrichment, per entry:
RLDRSYSYSYS [PEAR1_Y890] ... 0.5
GTHCHYKAPTV [FZD9_Y569] ... 0.429

Note to self: phosphorylation enrichment recorded for MGGSVYFSYPD [HIKESHI_Y55] was 1.65

# sequence AQMAMYFWEMG [TRPM4_Y577] ; its phosphorylation enrichment = 1.36

Reported phosphorylation enrichment for MGSFNYLGFAR [SPTLC2_Y178_YF] was 0.485

phosphorylation enrichment reading for CNNFICGGCRG [SPINT2_Y163_Y163C] : 0.504

Reported phosphorylation enrichment of NGEDPYAGSTD [XRCC1_Y515] : 0.581

Form field phosphorylation enrichment, entry WPLKWYVPECI [ZAP70_Y506_A507V] : 0.572

So for KGSLPYNLILD [PKD1L2_Y406] , the logged phosphorylation enrichment turned out to be 0.44

Kindly note the recorded phosphorylation enrichment for LRNRVYEVPVE [SLC26A3_Y756] , which is 1.37

Just so you know, measured phosphorylation enrichment for AKLNIYKRKVE [VWA3B_Y918] came out at 0.307

Briefly, phosphorylation enrichment measured for IRGNMYYENSY [EGFR_Y112] : 0.603

phosphorylation enrichment in this record for FADIAYNFRQG [PAH_Y166_H170Q_YF] : 0.505

Entry RFLERDIFNRE [HLA-DPB1_Y57_Y57D_YF] ; phosphorylation enrichment = 0.771

Form field phosphorylation enrichment, entry HNVAIYEGFAL [ACTC1_Y168_P166A_YF] : 9.95

Lab book: phosphorylation enrichment of GISDEYHVIRH [GCDH_Y398] noted as 0.962

# sequence VNTTLYEKFTY [TEK_Y1108] ; its phosphorylation enrichment = 4.55

PESTLYRKFTT [NTRK1_Y701_I699T] has a reported phosphorylation enrichment of 0.608

The value of phosphorylation enrichment measured for the sequence CLLHCYFSQIR [MCM3AP_Y873] turned out to be 0.413

Note to self: phosphorylation enrichment recorded for AALVQYFMEHH [PTPN11_Y80_E76A_YF] was 0.519

Entry under test: VKPENYWRLDI [VHL_Y175_R176W] . Its phosphorylation enrichment was 0.443

Sample IFRAAYFGVFD [SLC25A4_Y191_YF] ; phosphorylation enrichment observed: 0.457

Reported phosphorylation enrichment for IYRASYVPFAA [RBM47_Y541_G538R] was 0.657
